# Test system: A549/ATCC NSCLC
# PROCEDURE_SUMMARY: NCI-60 one-dose screen, 48 h (100 = growth as untreated, 0 = no growth, -100 = all killed)
# EXPERIMENTAL_SETUP: 10 µM unless noted
Compounds without any hit were thinned out: in the full panel of roughly 83,000, 20% have a hit.
Parameter growth: see the listing below.
Give just the numeric value; % need not be written.

Worked examples, 5 compounds total:
INSERT INTO measurements (compound, recorded_result) VALUES
  ('CCCCCCCCc1ccc(S(=O)(=O)Nc2ccc(CC)cc2C(=O)O)cc1', 91.9),
  ('CCOC(=O)C(N=Nc1ccc(S(=O)(=O)N=C(N)N)cc1)C(C)=O (stereo not given)', 107),
  ('CCCCc1c(Nn2cnnn2)no[n+]1[O-]', 66.4),
  ('COc1c(F)ccc(C(=O)Nc2ccc3nc(NC(=O)C4CCCN(S(=O)(=O)c5ccc(C#N)cc5)C4)sc3c2)c1F (stereo not given)', 91.6),
  ('CN1CCN(c2ccc(C(=O)/C=C/c3ccc(Br)cc3)cc2)CC1', 7.46);

Fill in the blank: the reported growth of Cc1ccc(-c2nc(Nc3ccccc3S(N)(=O)=O)c3ccccc3n2)cc1 is ____.
71

Give its growth value. Item: O=C(c1ccc(OCCN2CCOCC2)cc1)C1[C@H](c2ccc(Cl)cc2)[C@@H](c2ccccc2)NC12C(=O)Nc1ccc(Br)cc12 (stereo not given in full)
17.6

// lookup growth for CC1=C(C#N)C2=NNCC(c3ccccc3)=NN2C(c2ccccc2)=C1
99.3

Returns the measured growth for the input compound. Input: CC(=O)Nc1ccc(-c2nc3cc(-c4ccc(O)cc4)ccc3n2C)cc1
69.7
